- System: NCI-H2228
- testName: relative viability (nuclei count vs DMSO), 5 days (fraction); higher = more cells survive
- experimentalSetup: first compound 2.53 µM
measuredEndpoint: relative viability

molecule | measuredOn | numericValue
Oc1nc(-c2ccc(C(F)(F)F)cc2)nc2c1CSCC2 [XAV939] + CS(=O)(=O)CCNCc1ccc(-c2ccc3ncnc(Nc4ccc(OCc5cccc(F)c5)c(Cl)c4)c3c2)o1 [Lapatinib] (partner 2 µM) | NCI-H2228 | 0.928
C=C1C(=O)O[C@@H](CCCCCCCC)[C@@H]1C(=O)O [C-75] + COc1cc2c(Oc3ccc(NC(=O)C4(C(=O)Nc5ccc(F)cc5)CC4)cc3F)ccnc2cc1OCCCN1CCOCC1 [Foretinib] (partner 0.25 µM) | NCI-H2228 | 0.839
Oc1nc(-c2ccc(C(F)(F)F)cc2)nc2c1CSCC2 [XAV939] + C[C@]1(O)C[C@@H](c2nc(-c3ccc4ccc(-c5ccccc5)nc4c3)c3c(N)nccn32)C1 [Linsitinib] (partner 1 µM) | NCI-H2228 | 0.551
Oc1nc(-c2ccc(C(F)(F)F)cc2)nc2c1CSCC2 [XAV939] + CC(=O)c1c(C)c2cnc(Nc3ccc(N4CCNCC4)cn3)nc2n(C2CCCC2)c1=O [Palbociclib] (partner 0.5 µM) | NCI-H2228 | 0.657
Oc1nc(-c2ccc(C(F)(F)F)cc2)nc2c1CSCC2 [XAV939] + CCNC(=O)c1noc(-c2cc(C(C)C)c(O)cc2O)c1-c1ccc(CN2CCOCC2)cc1 [Luminespib] (partner 0.01 µM) | NCI-H2228 | 0.134
C=C1C(=O)O[C@@H](CCCCCCCC)[C@@H]1C(=O)O [C-75] + CS(=O)(=O)CCNCc1ccc(-c2ccc3ncnc(Nc4ccc(OCc5cccc(F)c5)c(Cl)c4)c3c2)o1 [Lapatinib] (partner 2 µM) | NCI-H2228 | 0.903
C=C1C(=O)O[C@@H](CCCCCCCC)[C@@H]1C(=O)O [C-75] + O=C(CCCCCCC(=O)Nc1ccccc1)NO [Vorinostat] (partner 1 µM) | NCI-H2228 | 0.67
C=C1C(=O)O[C@@H](CCCCCCCC)[C@@H]1C(=O)O [C-75] + Cc1nc(NC(=O)N2CCC[C@H]2C(N)=O)sc1-c1ccnc(C(C)(C)C(F)(F)F)c1 [Alpelisib] (partner 2 µM) | NCI-H2228 | 0.604

* * *

Below is a list of entries, each paired with its recorded relative viability value.
- Tested on: HCC-78
- testName: relative viability (nuclei count vs DMSO), 5 days (fraction); higher = more cells survive
- experimentalSetup: first compound 0.005 µM
measuredEndpoint: relative viability

molecule | numericValue
CC1(C)CCC(c2ccc(Cl)cc2)=C(CN2CCN(c3ccc(C(=O)NS(=O)(=O)c4ccc(N[C@H](CCN5CCOCC5)CSc5ccccc5)c(S(=O)(=O)C(F)(F)F)c4)cc3)CC2)C1 [Navitoclax] + COc1cc2c(Oc3ccc(NC(=O)C4(C(=O)Nc5ccc(F)cc5)CC4)cc3F)ccnc2cc1OCCCN1CCOCC1 [Foretinib] (partner 0.25 µM) | 0.596
CC1(C)CCC(c2ccc(Cl)cc2)=C(CN2CCN(c3ccc(C(=O)NS(=O)(=O)c4ccc(N[C@H](CCN5CCOCC5)CSc5ccccc5)c(S(=O)(=O)C(F)(F)F)c4)cc3)CC2)C1 [Navitoclax] + COc1cccc2cc(-c3nc([C@H]4CC[C@H](C(=O)O)CC4)n4ncnc(N)c34)[nH]c12 [OSI-027] (partner 0.5 µM) | 0.399
CC1(C)CCC(c2ccc(Cl)cc2)=C(CN2CCN(c3ccc(C(=O)NS(=O)(=O)c4ccc(N[C@H](CCN5CCOCC5)CSc5ccccc5)c(S(=O)(=O)C(F)(F)F)c4)cc3)CC2)C1 [Navitoclax] + Cc1nc(Nc2ncc(C(=O)Nc3c(C)cccc3Cl)s2)cc(N2CCN(CCO)CC2)n1 [Dasatinib] (partner 0.075 µM) | 0.405
CC1(C)CCC(c2ccc(Cl)cc2)=C(CN2CCN(c3ccc(C(=O)NS(=O)(=O)c4ccc(N[C@H](CCN5CCOCC5)CSc5ccccc5)c(S(=O)(=O)C(F)(F)F)c4)cc3)CC2)C1 [Navitoclax] + C[C@@H](Oc1cc(-c2cnn(C3CCNCC3)c2)cnc1N)c1c(Cl)ccc(F)c1Cl [Crizotinib] (partner 1 µM) | 0.368
CC1(C)CCC(c2ccc(Cl)cc2)=C(CN2CCN(c3ccc(C(=O)NS(=O)(=O)c4ccc(N[C@H](CCN5CCOCC5)CSc5ccccc5)c(S(=O)(=O)C(F)(F)F)c4)cc3)CC2)C1 [Navitoclax] + CS(=O)(=O)CCNCc1ccc(-c2ccc3ncnc(Nc4ccc(OCc5cccc(F)c5)c(Cl)c4)c3c2)o1 [Lapatinib] (partner 2 µM) | 0.704

* * *

- Tested on: CAL-12T
- testName: relative viability (nuclei count vs DMSO), 5 days (fraction); higher = more cells survive
- experimentalSetup: first compound 2.53 µM
measuredEndpoint: relative viability

compound | result
Oc1nc(-c2ccc(C(F)(F)F)cc2)nc2c1CSCC2 [XAV939] + N=C(N)NC(=N)NCCc1ccccc1 [Phenformin] (partner 250 µM) | 0.417
Oc1nc(-c2ccc(C(F)(F)F)cc2)nc2c1CSCC2 [XAV939] + CC1(C)CCC(c2ccc(Cl)cc2)=C(CN2CCN(c3ccc(C(=O)NS(=O)(=O)c4ccc(N[C@H](CCN5CCOCC5)CSc5ccccc5)c(S(=O)(=O)C(F)(F)F)c4)cc3)CC2)C1 [Navitoclax] (partner 0.5 µM) | 1.03
C=C1C(=O)O[C@@H](CCCCCCCC)[C@@H]1C(=O)O [C-75] + COc1cc2c(Oc3ccc(NC(=O)C4(C(=O)Nc5ccc(F)cc5)CC4)cc3F)ccnc2cc1OCCCN1CCOCC1 [Foretinib] (partner 0.25 µM) | 1.05
Oc1nc(-c2ccc(C(F)(F)F)cc2)nc2c1CSCC2 [XAV939] + CCNC(=O)c1noc(-c2cc(C(C)C)c(O)cc2O)c1-c1ccc(CN2CCOCC2)cc1 [Luminespib] (partner 0.01 µM) | 0.3
C=C1C(=O)O[C@@H](CCCCCCCC)[C@@H]1C(=O)O [C-75] + CC(=O)c1c(C)c2cnc(Nc3ccc(N4CCNCC4)cn3)nc2n(C2CCCC2)c1=O [Palbociclib] (partner 0.5 µM) | 0.458
Oc1nc(-c2ccc(C(F)(F)F)cc2)nc2c1CSCC2 [XAV939] + Nc1nc2[nH]cc(CCc3ccc(C(=O)N[C@@H](CCC(=O)O)C(=O)O)cc3)c2c(=O)[nH]1 [Pemetrexed] (partner 0.2 µM) | 0.814
C=C1C(=O)O[C@@H](CCCCCCCC)[C@@H]1C(=O)O [C-75] + C[C@]1(O)C[C@@H](c2nc(-c3ccc4ccc(-c5ccccc5)nc4c3)c3c(N)nccn32)C1 [Linsitinib] (partner 1 µM) | 0.701
Oc1nc(-c2ccc(C(F)(F)F)cc2)nc2c1CSCC2 [XAV939] + CC(=O)c1c(C)c2cnc(Nc3ccc(N4CCNCC4)cn3)nc2n(C2CCCC2)c1=O [Palbociclib] (partner 0.5 µM) | 0.209
C=C1C(=O)O[C@@H](CCCCCCCC)[C@@H]1C(=O)O [C-75] + N=C(N)NC(=N)NCCc1ccccc1 [Phenformin] (partner 250 µM) | 0.556
C=C1C(=O)O[C@@H](CCCCCCCC)[C@@H]1C(=O)O [C-75] + COc1cccc2cc(-c3nc([C@H]4CC[C@H](C(=O)O)CC4)n4ncnc(N)c34)[nH]c12 [OSI-027] (partner 0.5 µM) | 0.592
Oc1nc(-c2ccc(C(F)(F)F)cc2)nc2c1CSCC2 [XAV939] + C[C@]1(O)C[C@@H](c2nc(-c3ccc4ccc(-c5ccccc5)nc4c3)c3c(N)nccn32)C1 [Linsitinib] (partner 1 µM) | 0.667
C=C1C(=O)O[C@@H](CCCCCCCC)[C@@H]1C(=O)O [C-75] + CS(=O)(=O)N1CCN(Cc2cc3nc(-c4cccc5[nH]ncc45)nc(N4CCOCC4)c3s2)CC1 [Pictilisib] (partner 1 µM) | 0.292

* * *

Below is a list of entries, each paired with its recorded relative viability value.
- Test system: NCI-H647
- testName: relative viability (nuclei count vs DMSO), 5 days (fraction); higher = more cells survive
- experimentalSetup: first compound 0.253 µM
measuredEndpoint: relative viability

molecule | numericValue
C=C1C(=O)O[C@@H](CCCCCCCC)[C@@H]1C(=O)O [C-75] + CS(=O)(=O)N1CCN(Cc2cc3nc(-c4cccc5[nH]ncc45)nc(N4CCOCC4)c3s2)CC1 [Pictilisib] (partner 1 µM) | 0.427
C=C1C(=O)O[C@@H](CCCCCCCC)[C@@H]1C(=O)O [C-75] + CCNC(=O)c1noc(-c2cc(C(C)C)c(O)cc2O)c1-c1ccc(CN2CCOCC2)cc1 [Luminespib] (partner 0.01 µM) | 0.256
Oc1nc(-c2ccc(C(F)(F)F)cc2)nc2c1CSCC2 [XAV939] + NC(=O)Nc1cc(-c2cccc(F)c2)sc1C(=O)N[C@H]1CCCNC1 [AZD7762] (partner 0.2 µM) | 0.351
C=C1C(=O)O[C@@H](CCCCCCCC)[C@@H]1C(=O)O [C-75] + Nc1nc2[nH]cc(CCc3ccc(C(=O)N[C@@H](CCC(=O)O)C(=O)O)cc3)c2c(=O)[nH]1 [Pemetrexed] (partner 0.2 µM) | 0.186
Oc1nc(-c2ccc(C(F)(F)F)cc2)nc2c1CSCC2 [XAV939] + C[C@]1(O)C[C@@H](c2nc(-c3ccc4ccc(-c5ccccc5)nc4c3)c3c(N)nccn32)C1 [Linsitinib] (partner 1 µM) | 0.864
Oc1nc(-c2ccc(C(F)(F)F)cc2)nc2c1CSCC2 [XAV939] + CCNC(=O)c1noc(-c2cc(C(C)C)c(O)cc2O)c1-c1ccc(CN2CCOCC2)cc1 [Luminespib] (partner 0.01 µM) | 0.173

These measurements were taken from the supplement of paper PMC10307832.
